- EXPERIMENTAL TARGET: KCNQ 2/3 channels (HEK293 cells stably expressing human KCNQ2 and KCNQ3 subunits) (Homo sapiens, UniProt O43525+O43526)
- ASSAY REMARKS: KCNQ2/3 channel activation, thallium flux FLIPR assay with BTC-AM dye
- RUN PARAMETERS: HEK293 cells expressing human KCNQ2 and KCNQ3; thallium flux, FLIPR
// reported EC50 for each item listed

COMPOUND: O=C(CC12CC3CC(CC(C3)C1)C2)Nn1nc(-c2ccccc2)c2cc(F)ccc2c1=O
EC50: < 100 nM
--
COMPOUND: Cc1ccc(C)c(-c2nn(NC(=O)CC34CC5CC(CC(C5)C3)C4)c(=O)c3ccccc23)c1
EC50: 100 to 500 nM
--
COMPOUND: CC(C)(C)c1nn(NC(=O)Cc2ccc(Cl)cc2)c(=O)c2ccccc12
EC50: 100 to 500 nM
--
COMPOUND: O=C(CC1CC2CCC1C2)Nn1nc(-c2cccc(Cl)c2)c2ccccc2c1=O (racemic)
EC50: < 100 nM
--
COMPOUND: COC(=O)c1ccc(-c2nn(NC(=O)Cc3ccc(Cl)cc3)c(=O)c3ccccc23)cc1
EC50: 100 to 500 nM
--
COMPOUND: COc1ccc(-c2nn(NC(=O)CC34CC5CC(CC(C5)C3)C4)c(=O)c3ccc(Br)cc23)cc1
EC50: > 10000 nM
--
COMPOUND: CN(C)C(=O)c1ccc(-c2nn(NC(=O)CC3CC4CCC3C4)c(=O)c3ccccc23)cc1 (racemic)
EC50: > 10000 nM
--
COMPOUND: O=C(Cc1ccc(Cl)cc1)Nn1nc(C2CCCC2)c2ccccc2c1=O
EC50: < 100 nM

----------
- EXPERIMENTAL TARGET: KCNQ 2/3 channels (HEK293 cells stably expressing human KCNQ2 and KCNQ3 subunits) (Homo sapiens, UniProt O43525+O43526)
- Construct: expressed in transfected cells; host or cells: HEK293
- ASSAY REMARKS: KCNQ2/3 channel activation, thallium flux FLIPR assay with BTC-AM dye
- Format: cell-based
- RUN PARAMETERS: HEK293; maximum response relative to the response produced by 10 μM retigabine (set at 100%); read-out: Max. %
QUANTITY: Emax (%)

MOLECULE: O=C(CC1CC2CCC1C2)Nn1nc(-c2ccc(Cl)cc2)c2ccccc2c1=O (racemic) [Example 113]
RESULT: 154

MOLECULE: O=C(Cc1cc(F)ccc1F)Nn1nc(-c2ccccc2)c2ccccc2c1=O [Example 27]
RESULT: 92

MOLECULE: Cc1ccc(C)c(-c2nn(NC(=O)Cc3cc(F)cc(F)c3)c(=O)c3ccccc23)c1 [Example 158]
RESULT: 167

MOLECULE: O=C(CC1(c2ccccc2)CC1)Nn1nc(C(F)(F)F)c2ccccc2c1=O [Example 51]
RESULT: -2

MOLECULE: O=C(CC12CC3CC(CC(C3)C1)C2)Nn1nc(-c2ccccc2)c2c(F)ccc(F)c2c1=O [Example 15]
RESULT: 140

MOLECULE: O=C(CC1(c2ccccc2)CCCC1)Nn1nc(-c2ccc(Cl)cc2)c2ccccc2c1=O [Example 119]
RESULT: 12

MOLECULE: O=C(CC12CC3CC(CC(C3)C1)C2)Nn1nc(-c2ccccc2)c2cccnc2c1=O [Example 7]
RESULT: 136

MOLECULE: O=C(Cc1ccc(F)cc1)Nn1nc(-c2ccccc2)c2c(F)ccc(F)c2c1=O [Example 14]
RESULT: 171

MOLECULE: CC1(C)[C@@H]2C[C@H]1[C@H](CC(=O)Nn1nc(-c3ccc(Cl)cc3)c3ccccc3c1=O)C(F)(F)C2 [Example 88]
RESULT: 60

MOLECULE: CC(C)(CC(=O)Nn1nc(C(F)(F)F)c2ccccc2c1=O)c1ccccc1 [Example 52]
RESULT: 116

MOLECULE: O=C(Cc1ccc(Cl)cc1)Nn1nc(-c2ccccc2)c2c(c1=O)CCC2 [Example 190]
RESULT: 124

MOLECULE: CC1(CC(=O)Nn2nc(-c3ccc(Cl)cc3)c3ccccc3c2=O)CCCC1 [Example 86]
RESULT: 166

MOLECULE: O=C(Cc1ccc(Cl)c(F)c1)Nn1nc(C(F)(F)F)c2ccccc2c1=O [Example 59]
RESULT: 90

MOLECULE: O=C(CC12CC3CC(CC(C3)C1)C2)Nn1nc(-c2cccc(Cl)c2)c2ccccc2c1=O [Example 126]
RESULT: 153

MOLECULE: CC(C)c1ccc(-c2nn(NC(=O)Cc3ccc(Cl)cc3)c(=O)c3ccccc23)cc1 [Example 170]
RESULT: 104

MOLECULE: O=C(Cc1cccc(Cl)c1)Nn1nc(-c2ccc(Cl)cc2)c2ccccc2c1=O [Example 103]
RESULT: 140

MOLECULE: O=C(Cc1cc(F)cc(F)c1)Nn1nc(-c2ccc(F)cc2)c2ccccc2c1=O [Example 133]
RESULT: 144

MOLECULE: O=C(CC(F)(F)F)Nn1nc(-c2ccc(Cl)cc2)c2ccccc2c1=O [Example 124]
RESULT: 33

MOLECULE: CC(C)(CC(=O)Nn1nc(-c2ccc(Cl)cc2)c2ccccc2c1=O)c1ccccc1 [Example 89]
RESULT: 118

MOLECULE: COc1ccc(-c2nn(NC(=O)CC3CCC(C)CC3)c(=O)c3ccccc23)cc1 (stereo not shown) [Example 152]
RESULT: 114

MOLECULE: O=C(Cc1cc(F)cc(F)c1)Nn1nc(C2CCCC2)c2ccccc2c1=O [Example 73]
RESULT: 142

MOLECULE: COC(=O)c1ccc(-c2nn(NC(=O)C[C@H]3C[C@@H]4CC[C@H]3C4)c(=O)c3ccccc23)cc1 (racemic) [Example 79]
RESULT: 144

MOLECULE: O=C(CC12CC3CC(CC(C3)C1)C2)Nn1nc(C(F)(F)F)c2ccccc2c1=O [Example 12]
RESULT: 169

MOLECULE: O=C(CC1CCCC1)Nn1nc(C(F)(F)F)c2ccccc2c1=O [Example 43]
RESULT: 112

MOLECULE: COc1ccc(-c2nn(NC(=O)Cc3cc(F)cc(F)c3)c(=O)c3ccc(Br)cc23)cc1 [Example 176]
RESULT: 33

MOLECULE: CC(C)(C)c1nn(NC(=O)Cc2ccc(Cl)cc2)c(=O)c2ccccc12 [Example 65]
RESULT: 151

MOLECULE: CS(=O)(=O)c1ccc(CC(=O)Nn2nc(C(F)(F)F)c3ccccc3c2=O)cc1 [Example 49]
RESULT: 3

MOLECULE: O=C(Cc1cc(F)cc(F)c1)Nn1nc(C2CCCCC2)c2ccccc2c1=O [Example 77]
RESULT: 145

MOLECULE: O=C(Cc1cc(F)cc(F)c1)Nn1nc(C(F)(F)F)c2ccccc2c1=O [Example 11]
RESULT: 77

MOLECULE: O=C(CC1CCC1)Nn1nc(C(F)(F)F)c2ccccc2c1=O [Example 45]
RESULT: 84

MOLECULE: O=C(CC12CC3CC(CC(C3)C1)C2)Nn1nc(-c2ccccc2)c2sccc2c1=O [Example 9]
RESULT: 241

MOLECULE: Cc1ccc(-c2nn(NC(=O)Cc3ccc(Cl)cc3)c(=O)c3ccccc23)cc1 [Example 135]
RESULT: 95

MOLECULE: O=C(C[C@H]1C[C@@H]2CC[C@H]1C2)Nn1nc(Cc2ccccc2)c2ccccc2c1=O (racemic) [Example 141]
RESULT: 130

MOLECULE: O=C(CC1CC2CCC1C2)Nn1nc(C2CCCC2)c2ccccc2c1=O (racemic) [Example 71]
RESULT: 162

----------
Property: Emax; scope: individual molecules
- EXPERIMENTAL TARGET: KCNQ 2/3 channels (HEK293 cells stably expressing human KCNQ2 and KCNQ3 subunits) (Homo sapiens, UniProt O43525+O43526)
- Construct: expressed in transfected cells; host or cells: HEK293
- ASSAY REMARKS: KCNQ2/3 channel activation, thallium flux FLIPR assay with BTC-AM dye
- Format: cell-based
- RUN PARAMETERS: HEK293; maximum response relative to the response produced by 10 μM retigabine (set at 100%); read-out: Max. %
QUANTITY: Emax

MOLECULE: O=C(C[C@H]1C[C@@H]2CC[C@H]1C2)Nn1nc(-c2ccc(Br)cc2)c2ccccc2c1=O (racemic)
RESULT: 134%
--
MOLECULE: Cc1nn(NC(=O)Cc2cc(F)cc(F)c2)c(=O)c2ccccc12
RESULT: 126%
--
MOLECULE: O=C(Cc1ccc(Cl)cc1)Nn1nc(-c2ccc(F)cc2)c2ccccc2c1=O
RESULT: 123%
--
MOLECULE: CC(C)c1nn(NC(=O)CC23CC4CC(CC(C4)C2)C3)c(=O)c2ccccc12
RESULT: 200%
--
MOLECULE: Cc1ccc(-c2nn(NC(=O)C[C@@H]3CC[C@H]4C[C@@H]3C4(C)C)c(=O)c3ccccc23)cc1
RESULT: 95%
--
MOLECULE: O=C(CC12CC3CC(CC(C3)C1)C2)Nn1nc(-c2ccc(C(F)(F)F)cc2)c2ccccc2c1=O
RESULT: 133%
--
MOLECULE: CC(C)c1nn(NC(=O)Cc2ccc(Cl)cc2)c(=O)c2ccccc12
RESULT: 125%
--
MOLECULE: CC(C)(CC(=O)Nn1nc(C(F)(F)F)c2ccccc2c1=O)c1ccc(Cl)cc1
RESULT: 103%
